- Tested on: Escherichia coli TOP10;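 note: peptides expressed intracellularly from a pBAD plasmid library in pooled LB shake-flask culture, induced with 0.3% L-arabinose, DNA abundance read by NGS, three biological replicates, DESeq2 with apeglm shrinkage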
- assay_details: shrunken log2 fold change of peptide-encoding DNA abundance (4.5 h post-induction vs induction); higher = less antimicrobial activity (less host growth inhibition)
- conditions_used: time post-induction: 4.5 h; library: site-saturation at positions 5, 18, 19, 20
Returns one of 1 or -1; 1 when shrunken log2 fold change is >= 0.05.

seq_string=RRIRCRPPRLPRPRPRPEWEPRP qualitative_label=-1
seq_string=RRIRFRPPRLPRPRPRPYDTPRP qualitative_label=-1
seq_string=RRIRIRPPRLPRPRPRPEYLPRP qualitative_label=-1
seq_string=RRIRIRPPRLPRPRPRPFIEPRP qualitative_label=-1

Identify whether the reported shrunken log2 fold change of the following sequence is 0.05 or greater: "RRIRVRPPRLPRPRPRPTVDPRP" 1

Item "RRIRCRPPRLPRPRPRPGELPRP" with shrunken log2 fold change of 0.05 or above? 1

For this sequence, is measured shrunken log2 fold change 0.05 or higher? "RRIRFRPPRLPRPRPRPDGRPRP" -1

Quick check, shrunken log2 fold change >= 0.05? "RRIRERPPRLPRPRPRPKREPRP" 1

State whether the measured shrunken log2 fold change reaches 0.05, counting equality as reaching it, for "RRIRSRPPRLPRPRPRPFTSPRP" 1
